# Tested on: Clone20 osteoblast Shn3 3'UTR firefly luciferase, 24 h
# assay_summary: Shn3 3'UTR reporter inhibitors, dose response, cell-based, Clone20 osteoblasts, luminescence, dry powder, set 2 (AID 743417)
Inconclusive results are not listed.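 How the source made its calls: active means compounds lowering the luciferase signal with a fitted half-maximal dose at most twice their top valid dose (cut at about 30 µM in these data); inconclusive means flat fits with moderate signal loss, or poor fits; inactive means the rest.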
// classify into True (active), False (inactive)

- compound: "CC1CN(C(=O)CCc2cc(C(C)(C)C)c(O)c(C(C)(C)C)c2)CC(C)O1 (configuration not stated)"
  target_system: "Clone20 osteoblast Shn3 3'UTR firefly luciferase, 24 h"
  label_class: "True"
- compound: "Cc1ccc(-c2nc(NC(=O)c3nn(C)cc3[N+](=O)[O-])sc2C)cc1"
  target_system: "Clone20 osteoblast Shn3 3'UTR firefly luciferase, 24 h"
  label_class: "True"
- compound: "COc1ccc(-c2ccc(Nc3ccc(S(=O)(=O)N4CCCC4)cc3)nn2)cc1OC"
  target_system: "Clone20 osteoblast Shn3 3'UTR firefly luciferase, 24 h"
  label_class: "True"
- compound: "O=C1c2c(O)ccc(O)c2C(=O)c2c(NCCNCCO)ccc(NCCNCCO)c21"
  target_system: "Clone20 osteoblast Shn3 3'UTR firefly luciferase, 24 h"
  label_class: "True"

Okay, next one:
Which outcome did this test record for the compound O=C(NNC(=O)C(c1ccccc1)c1ccccc1)c1ccccn1 ?
True

* * *

# Tested on: Clone20 osteoblast Shn3 3'UTR firefly luciferase, 24 h
# assay_summary: Shn3 3'UTR reporter inhibitors, dose response, cell-based, Clone20 osteoblasts, luminescence, dry powder, set 2 (AID 743417)
Results filed as inconclusive are left out. Active and inactive are the calls of the source.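 Rule for the calls: active = compounds lowering the luciferase signal with a fitted half-maximal dose at most twice their top valid dose (cut at about 30 µM in these data); inconclusive = flat fits with moderate signal loss, or poor fits; inactive = the rest.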
The reply should be one of these categories: active, inactive

Please review the entries below; each comes with its answer.
- compound: "Cc1ccc(S(=O)(=O)NCCc2cc3ccc(C)cc3[nH]c2=O)cc1"
  label_class: "inactive"
- compound: "O=C(OCn1ncc(Cl)c(Cl)c1=O)c1ccccc1Cl"
  label_class: "active"
- compound: "Cc1cc(C)c(CN2CCN(C(=O)Cn3cnc4c(NCc5ccccc5)ncnc43)CC2)c(C)c1"
  label_class: "active"
- compound: "CN(C)c1ccc(C=c2c3cc([N+](=O)[O-])ccc3n3c2cc(-c2ccccc2)[n+]3C)cc1"
  label_class: "active"
- compound: "Cn1c(SCc2ccc(F)cc2Cl)nc2ccccc2c1=O"
  label_class: "active"

Assay outcome for CCn1c(=NC(=O)CCS(=O)(=O)c2ccccc2)sc2cccc(OC)c21 : what was it?
active

Outcome? O=C(C1CCC(CNS(=O)(=O)c2cccs2)CC1)N1CCN(c2ccc(Cl)cc2)CC1 (configuration not stated)
active

What was the test verdict on OC[C@@H]1CN(Cc2ccncc2)C[C@H](n2cnc3c(N4CCN(c5ccccc5)CC4)ncnc32)O1 ?
active

For this compound, state the assay outcome: O=[N+]([O-])c1c(NCCCO)cc(Sc2nc3ccccc3s2)c2nonc12
active

What did the test return for O=C(Nc1ccc(N2CCN(C(=O)c3ccc(Cl)cc3)CC2)cc1)c1ccc2c(c1)OCCO2 ?
active

* * *

Listed here: items and their measured AC50.
# Test system: Clone20 osteoblast Shn3 3'UTR firefly luciferase, 24 h
# assay_summary: Shn3 3'UTR reporter inhibitors, dose response, cell-based, Clone20 osteoblasts, luminescence, dry powder, set 2 (AID 743417)
Results filed as inconclusive are left out.

Below: 2 molecules and their reported AC50.
- molecule: "Cc1ccccc1CS(=O)(=O)c1ncc(Cl)c(C(=O)Nc2ccc(F)cc2)n1"
  AC50: "3 µM"
- molecule: "CCC(=O)NC(c1ccc(OC)c(OC)c1)c1cc(Cl)c2cccnc2c1O (centres undefined)"
  AC50: "< 0.26 µM"

Find the measured AC50: item COc1cccc(-c2nc(NC3CCCC3)c3ccccc3n2)c1O , target or system Clone20 osteoblast Shn3 3'UTR firefly luciferase, 24 h.
25 µM

Test system Clone20 osteoblast Shn3 3'UTR firefly luciferase, 24 h; read-out AC50; what value for CC(=O)N(CCc1ccccc1)c1ccc2c(c1)C1CC2CCN1C(=O)OCc1ccccc1 (centres undefined) ?
14.3 µM

* * *

# Test system: Clone20 osteoblast Shn3 3'UTR firefly luciferase, 24 h
# assay_summary: Shn3 3'UTR reporter inhibitors, dose response, cell-based, Clone20 osteoblasts, luminescence, dry powder, set 2 (AID 743417)
Results filed as inconclusive are left out.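 The calls were made as follows: active = compounds lowering the luciferase signal with a fitted half-maximal dose at most twice their top valid dose (cut at about 30 µM in these data); inconclusive = flat fits with moderate signal loss, or poor fits; inactive = the rest.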
The reply should be one of these categories: T = active, F = inactive

Look over these answered cases.
- compound: "COc1ccc(C(=O)C(C)OC(=O)c2cccc(S(=O)(=O)Nc3cc(Cl)c(OC)cc3OC)c2)cc1 (stereo unspecified)"
  label_class: "T"
- compound: "COc1cc(C)c(C(=O)CC(=O)c2c(C)cc(OC)cc2C)c(C)c1"
  label_class: "T"
- compound: "COc1cccc(CNCCc2c[nH]c3ccccc23)c1OCc1ccccc1"
  label_class: "T"

Which result was noted for this compound in the test: COC(=O)C1=C(C(=O)OC)[C@@H]2N(Cc3ccccc3)c3ccccc3[C@@]23C[C@@H](C(=O)OC)N(C(=O)c2ccc(Br)cc2)C3=N1
T

Tell me the recorded outcome of this test for COc1ccc(S(=O)(=O)N2CCN(C(=O)c3cc(-c4ccc(Br)cc4)n[nH]3)CC2)cc1OC .
T

For Nc1nc(Cl)cc(N2CCC(c3cc(-c4ccc(Cl)cc4)n[nH]3)CC2)n1 , which call appears in the assay record?
T

* * *

# Tested on: Clone20 osteoblast Shn3 3'UTR firefly luciferase, 24 h
# assay_summary: Shn3 3'UTR reporter inhibitors, dose response, cell-based, Clone20 osteoblasts, luminescence, dry powder, set 2 (AID 743417)
Inconclusive results are not listed.
recorded_metric: AC50

Worked cases, AC50 given:
- compound: "Cc1cc(Br)c2c(c1)/C(=C/C(=O)c1cccs1)C(=O)N2"
  AC50: "19.9 µM"
- compound: "CCOc1ccc2nc3cc(NCc4ccc(OC)cc4)ccc3c(N)c2c1"
  AC50: "6.69 µM"
- compound: "N=c1n(Cc2ccc(Cl)cc2)c2ccccc2n1CC(O)COc1ccccc1 (stereo not given)"
  AC50: "2.34 µM"
- compound: "O=C(c1ccc(Cn2c(=S)[nH]c3ccccc3c2=O)cc1)N1CCN(c2ccccn2)CC1"
  AC50: "6.34 µM"

--- query ---
What AC50 appears in the records for this compound with Clone20 osteoblast Shn3 3'UTR firefly luciferase, 24 h? CN1/C(=C/C(=O)c2nc(S(C)(=O)=O)ncc2Cl)C(C)(C)c2ccccc21
5.21 µM

* * *

Listed below: AC50 values for each entry.
# Tested on: Clone20 osteoblast Shn3 3'UTR firefly luciferase, 24 h
# assay_summary: Shn3 3'UTR reporter inhibitors, dose response, cell-based, Clone20 osteoblasts, luminescence, dry powder, set 2 (AID 743417)
Records with an inconclusive call do not appear.

- molecule: "COc1ccccc1-c1c(-c2ccc(O)cc2O)n[nH]c1C(F)(F)F"
  recorded_metric: "AC50"
  result: "708 nM"
- molecule: "COc1ccc(C(=O)NNC(=O)c2cccc(S(=O)(=O)N3CCOCC3)c2)cc1"
  recorded_metric: "AC50"
  result: "23200 nM"
- molecule: "CC1(c2ccc3ccccc3c2)NC(=O)N(CC(=O)N2CCN(Cc3ccc(C#N)cc3)CC2)C1=O (stereo not given)"
  recorded_metric: "AC50"
  result: "416 nM"
- molecule: "CN(c1ccccc1)c1ccc(/C=C/[N+](=O)[O-])cc1"
  recorded_metric: "AC50"
  result: "5790 nM"
- molecule: "Nc1nc(N)c2cc(Sc3cccc(C(F)(F)F)c3)ccc2n1"
  recorded_metric: "AC50"
  result: "4870 nM"
- molecule: "O=c1c2ccccc2nc(/C=C/c2ccc([N+](=O)[O-])o2)n1-c1ccc(O)cc1"
  recorded_metric: "AC50"
  result: "3240 nM"

Hello, I am looking for reported AC50 with Clone20 osteoblast Shn3 3'UTR firefly luciferase, 24 h for Cc1nc2scc(C)n2c(=O)c1S(=O)(=O)Nc1ccc(N2CCOCC2)c(Cl)c1 . Could you help?
1670 nM

Entry Cc1ccc(NN2C(=O)C=C(c3ccc(Cl)cc3)C2=O)cc1 , system Clone20 osteoblast Shn3 3'UTR firefly luciferase, 24 h: what AC50 was measured?
6530 nM

Could you share what AC50 was measured for COc1ccc(OC)c(NC(=O)c2nc(S(=O)(=O)Cc3ccccc3)ncc2Cl)c1 , tested on Clone20 osteoblast Shn3 3'UTR firefly luciferase, 24 h?
2080 nM

Form field - read-out: AC50; system: Clone20 osteoblast Shn3 3'UTR firefly luciferase, 24 h; submitted item: Cn1nc(-c2ccc(OCC(=O)N3CCN(Cc4ccccc4)CC3)cc2)c2ccccc2c1=O
2100 nM

* * *

# Test system: Clone20 osteoblast Shn3 3'UTR firefly luciferase, 24 h
# assay_summary: Shn3 3'UTR reporter inhibitors, dose response, cell-based, Clone20 osteoblasts, luminescence, dry powder, set 2 (AID 743417)
Results filed as inconclusive are left out.
recorded_metric: AC50

Worked cases, AC50 given:
- compound_structure_string: "CCOc1ccccc1NC(=O)c1nc(S(=O)(=O)Cc2cccc(C)c2)ncc1Cl"
  AC50: "0.324 µM"
- compound_structure_string: "O=C(Nc1ccc(Cl)c(Cl)c1)Nc1ccc(N2CCCC2)c(S(=O)(=O)Nc2ccccc2Cl)c1"
  AC50: "5.13 µM"
- compound_structure_string: "Cc1nc2c(OCc3ccc(Cl)cc3Cl)cccn2c1N(C)CC1CC1"
  AC50: "10 µM"
- compound_structure_string: "O=C(Nc1ccc(N2CCN(C(=O)c3ccco3)CC2)c(Cl)c1)c1cc2ccccc2o1"
  AC50: "5 µM"

Requested read-out: AC50. Entry: Cc1nc2ccccc2c2oc(C(=O)N3CCN(C4CCCCC4)CC3)cc12
7.02 µM
